Reported IC50 is given for each of the following molecules.
test system: HEK293 cells; experiment: HEK293 cell viability (resazurin) assay; type: cell-based, Human; conditions: Homo sapiens, HEK293, 72 h

- molecule: "CC(C)CCc1sc(NC(=O)c2cc(NC(=O)c3ccc(/C=C/c4ccc(F)cc4)nc3)cn2C)nc1C(=O)NCCCN(C)C.O=C(O)C(F)(F)F"
  systemName: "HEK293 cells"
  IC50 (µM): 9.1
- molecule: "CN(C)CCNC(=O)c1cc(NC(=O)c2cc(NC(=O)c3ccc(/C=C/c4ccc(N(C)C)cc4)nc3)cn2C)cn1C.O=C(O)C(F)(F)F"
  systemName: "HEK293 cells"
  IC50 (µM): 3.86
- molecule: "COc1ccc2nc3cc(Cl)ccc3c(Nc3cc(CN4CCCC4)c(O)c(CN4CCCC4)c3)c2n1 [Pyronaridine, pyronaridine, reference compound]"
  systemName: "HEK293 cells"
  IC50 (µM): 3.05
- molecule: "CC(C)CCc1sc(NC(=O)c2cc(NC(=O)c3ccc(/C=C/c4cccc(C(F)(F)F)c4)nc3)cn2C)nc1C(=O)NCCCN(C)C.O=C(O)C(F)(F)F"
  systemName: "HEK293 cells"
  IC50 (µM): 8.2
- molecule: "CC(C)CCc1sc(NC(=O)c2cc(NC(=O)c3ccc(/C=C/c4cccc(F)c4)cc3)cn2C)nc1C(=O)NCCCN(C)C.O=C(O)C(F)(F)F"
  systemName: "HEK293 cells"
  IC50 (µM): 10.5
- molecule: "COc1ccc(C[C@H](N)C(=O)N[C@H]2[C@@H](O)[C@H](n3cnc4c(N(C)C)ncnc43)O[C@@H]2CO)cc1 [Puromycin, puromycin, reference compound]"
  systemName: "HEK293 cells"
  IC50 (µM): 0.378

* * *

tested on: HEK293 cells; experiment: HEK293 cell viability (resazurin) assay; assay type: cell-based, Human; details: ratio of HEK293 IC50 (or relative IC50) to P. falciparum 3D7 IC50

- compound: "CC(C)CCc1sc(NC(=O)c2cc(NC(=O)c3cc(NC(=O)c4cccc(F)c4)cn3C)cn2C)nc1C(=O)NCCCN(C)C.O=C(O)C(F)(F)F [S-MGB-386]"
  resultComparator: ">"
  SI, HEK293/3D7: 157
- compound: "CN(C)c1ccc(/C=C/c2ccc(C(=O)Nc3cc(C(=O)Nc4cc(C(=O)NCCN5CCOCC5)n(C)c4)n(C)c3)cn2)cc1.O=C(O)C(F)(F)F [S-MGB-245]"
  resultComparator: "="
  SI, HEK293/3D7: 17
- compound: "CC(C)CCc1sc(NC(=O)c2cc(NC(=O)c3ccc(/C=C/c4ccc(C(F)(F)F)cc4)cc3)cn2C)nc1C(=O)NCCCN(C)C.O=C(O)C(F)(F)F [S-MGB-377]"
  resultComparator: "="
  SI, HEK293/3D7: 59

* * *

Known inhibition at 80 µM of a selection of compounds
system: HEK293 cells; assay: HEK293 cell viability (resazurin) assay; format: cell-based, Human; conditions: Homo sapiens, HEK293; 80 μM; 72 h

- molecularString: "CC(C)CCc1sc(NC(=O)c2cc(NC(=O)c3cc(NC(=O)c4cccc(F)c4)cn3C)cn2C)nc1C(=O)NCCCN(C)C.O=C(O)C(F)(F)F"
  uom: "%"
  inhibition at 80 µM: 101
- molecularString: "COc1cccc(/C=C/c2ccc(C(=O)Nc3cc(C(=O)Nc4cc(C(=O)NCCC(=N)N)n(C)c4)n(C)c3)cn2)c1.O=C(O)C(F)(F)F.O=C(O)C(F)(F)F"
  uom: "%"
  inhibition at 80 µM: 92
- molecularString: "Cn1cc(NC(=O)c2cc(NC(=O)c3ccc(/C=C/c4cccc(F)c4)cc3)cn2C)cc1C(=O)NCCC(=N)N.O=C(O)C(F)(F)F"
  uom: "%"
  inhibition at 80 µM: 100
